Exercise: state measured z-score for each of the compounds provided.
# Assay remarks: P. aeruginosa biofilm formation inhibitors, primary screen, PAO1 strain, BacTiter-Glo luminescence, LB-PBS (AID 1144)
# Assay context: 12 h, higher = more signal
Lab note: jot down the number only; don't add units.

Endpoint output: z-score of `COc1cc(Cc2cc3c(c(CCc4ccccc4)n2)[Si](C(C)C)(C(C)C)OC3)cc(OC)c1OC` . Value?
-0.554

Query CC[C@H]1C2=C3C(CC[C@H]4C(OC)OC[C@](C)([C@@H]34)N(C(=O)OC(C)(C)C)C2)C(CO)C1CO (some centres undefined) next
1.01

Query `O=C1C[C@@](C(=O)NCCN2CCOCC2)(c2ccc([N+](=O)[O-])cc2)[C@@H](c2ccc(CO)cc2)N1C1CCCCC1` next
0.82

Query `O=C1c2ccccc2[C@@]2(Cc3ccccc3N(CC(F)(F)F)C2=O)[C@H](c2ccc(CO)cc2)N1C1CCCCC1` next
0.00188

---

# Assay remarks: binders of probe aFGF2 on microarray, primary screen, stem cell growth factor project, biochemical, small-molecule microarray, fluorescence 635/667 (AID 1067);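 also: measures binding of biotinylated aFGF2 protein to printed compounds on slides; z-score merges feature fluorescence and signal-to-noise across triplicate slides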
# Assay context: higher = more signal
Quantity name: composite z-score
Lab note: jot down the number only; don't add units.

Endpoint output: composite z-score of `COc1ccc([Si](C)(C)[C@H]2[C@H](CC(=O)N(CCO)Cc3ccccc3)O[C@@]3(C(=O)N(C)c4ccccc43)[C@@H]2C)cc1` . Value?
0.0248

Query `CO[C@]12C=C(Br)[C@@H](C[C@@H]1c1ccccc1)[C@@]1(CO1)C2=O` next
-0.0336

Query COC(=O)C1=CC(c2ccc(CO)cc2)=CC(c2cccs2)N(Cc2cccc(OC(F)(F)F)c2)C=C1C(=O)OC (centres undefined) next
-0.0375

Query `CC/C=C/C(=O)N(C[C@@H]1CCCO1)[C@@H]1CC(C(=O)NCCO)=C[C@H](Oc2c(I)cc(CO)cc2OC)[C@H]1O` next
-0.22

---

# Assay remarks: compound binding in COS7 lysate, probe aLAP1, primary screen, cell lysate, small-molecule microarray (AID 1124);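 also: lysate comes from COS7 cells expressing LAP1 and is applied at 0.3 µg/mL; score merges spot fluorescence near 667 nm with signal-to-noise over triplicate slides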
# Assay context: probe aLAP1, fluorescence, higher = more signal
Quantity name: composite z-score
Lab note: jot down the number only; don't add units.

Endpoint output: composite z-score of `CCCCO[C@H]1C[C@H]2C(Br)=C[C@@]1(CO)C(=O)[C@]21CO1` . Value?
-0.139

Query `CCOC(=O)C[C@H]1[C@H](OC(=O)Cc2ccc3c(c2)OCO3)[C@@H](NC(=O)c2ccc3ccccc3c2)c2cc(OCCCO)ccc2N1C(=O)Cc1ccc(OC)cc1` next
-0.333

Query `NC(=O)NCC#Cc1ccc2c(c1)[C@]1(C(=O)N2)[C@H](C(=O)N2CCCCCCC2)[C@H]2C(=O)O[C@H](c3ccccc3)[C@H](c3ccccc3)N2[C@@H]1c1ccccc1OCCO` next
1.26

Query CC(c1ccccc1)C(O)C1C=CC2C(=O)N(C)C(=O)C2N1N(c1ccccc1)c1ccccc1 (configuration not stated) next
0.19

Query `O=C1O[C@@H](c2ccccc2)[C@@H](c2ccccc2)N2[C@@H](c3ccc(O)cc3)[C@]3(C(=O)Nc4ccc(C#CC5(O)CCCCCC5)cc43)[C@@H](C(=O)Nc3nc4ccccc4s3)[C@H]12` next
0.807

Query `C[C@@H]1C=CCC(=O)OC[C@H]2O[C@@H](C=C[C@@H]2O)[C@H](C)C=CCC(=O)OC[C@H]2O[C@H]1C=C[C@@H]2O` next
-0.725

Query `CCC#CCN(Cc1ccccc1Br)[C@H](/C=C/c1ccccc1)[C@@H](O)Cc1ccccc1` next
0.162

Query `CCCC/C=C/[C@H]([C@@H](O)Cc1ccccc1)N(CC#Cc1ccccc1)Cc1ccccc1Br` next
0.006

Query `COC(=O)C(CC#Cc1ccc2c(c1)[C@]1(C(=O)N2)[C@H](C(=O)N2CCCCCCC2)[C@H]2C(=O)O[C@H](c3ccccc3)[C@H](c3ccccc3)N2[C@@H]1c1ccc(O)cc1)C(=O)OC` next
0.39

Query `C=CCc1cccc([C@@H]2[C@@H](C)CC[C@H]3C(=O)N4[C@H](c5cccc(CC=C)c5)[C@@H](C)CC[C@H]4C(=O)N23)c1` next
0.035

Query `COCCOC(=O)N1C(=O)[C@@]2(c3cc(C#CCCO)ccc31)[C@H](C(=O)N1CCCCCCC1)[C@H]1C(=O)O[C@H](c3ccccc3)[C@H](c3ccccc3)N1[C@@H]2c1ccc(O)cc1` next
0.837

Query `CCCCCCc1nc(C2CC2)c(C)c2c1[Si](C(C)C)(C(C)C)OC2` next
-0.35

Query COC(=O)c1ccc(C#CC(NP(=O)(c2ccccc2)c2ccccc2)c2ccccc2)cc1 (configuration not stated) next
-0.0375

Query `COc1cccc([C@@H]2[C@@H](C)CC[C@H]3C(=O)N(C)[C@@H](C(C)C)C(=O)N23)c1` next
-0.343

Query `COC(=O)Cn1c(C(=O)N2CCCC2)cc2c1C[C@H]1CN(C(=O)c3ccccc3)[C@@](Cc3ccccc3)(C(=O)OC)[C@@H]21` next
-0.263

Query `CCCC=C(CCC)[C@@H](NS(=O)(=O)c1cccc(C(F)(F)F)c1)c1ccc(C(=O)OC)cc1` next
0.134

Query `COCCOC(=O)N1C(=O)[C@@]2(c3cc(C#CC4=CCCCC4)ccc31)[C@H](C(=O)NC[C@H](O)c1ccccc1)[C@H]1C(=O)O[C@H](c3ccccc3)[C@H](c3ccccc3)N1[C@@H]2c1ccc(OCCO)cc1` next
-0.0647

Query `C[C@@H]1NC(=O)CC=C[C@@H](C)[C@@H]2C=C[C@H](O)[C@@H](COC(=O)[C@H](C)NC(=O)CC=C[C@@H](C)[C@@H]3C=C[C@H](O)[C@@H](COC1=O)O3)O2` next
-0.0401

Query `CC(=O)NCCCC[C@@H]1NC(=O)[C@@H]2C[C@H](C(=O)NCc3ccc(F)cc3)[C@H](c3cccc(OCCO)c3)N2C1=O` next
0.19

Query `CCN1C(C)=C(C(=O)OC)[C@@H](c2ccccc2)N2C(=O)[C@](O)(C(=O)OC)[C@@H](c3ccccc3)C(C(=O)c3ccccc3)=C12` next
0.629

Query `Cc1ccc(S[C@]2(C(=O)O)CC(=O)N(Cc3ccccc3)[C@@H]2c2ccc(CO)cc2)cc1` next
0.623

Query `CO[C@H]1COC(=O)[C@@H](Cc2ccccc2)NC(=O)[C@@H](C)COC(=O)CC=C[C@@H]1C` next
-0.422

Query CC(C)[C@H]1NC(=O)[C@@]23C(=O)N[C@@H](Cc4ccccc4)C2[C@H](C)[C@@]2(C)O[C@H]2C3/C=C/C/C=C\CNC(=O)[C@H](C)NC1=O (some centres not stated) next
-0.258

Query `COCCCNC(=O)[C@@H]1c2ccccc2C(=O)N(CC23CC4CC(CC(C4)C2)C3)[C@H]1c1ccc(CO)cc1` next
0.334

Query `C=C(COC)C(=O)CC[C@H](OC(=O)c1ccccc1-c1ccccc1C(=O)O)c1cccc(OCCO)c1` next
0.893

Query `CO[C@H]1COC(=O)[C@H](C)NC(=O)CC=C[C@@H](C)[C@H](NS(=O)(=O)c2ccc(C)cc2)COC(=O)CC=C[C@@H]1C` next
-0.177

Query `[N-]=[N+]=Nc1ccccc1C[C@@]1(C(=O)N2CCOCC2)N=C(c2ccc(OCCCO)cc2)O[C@@H]1c1ccccc1N=[N+]=[N-]` next
0.0649

---

# Assay remarks: basal S. cerevisiae growth modulation, no modifier, primary screen, OD600, strain BY4716, 24 h, basal condition (AID 1173)
# Assay context: OD600, 24 h, higher = more signal, called active from +8 up or from −8 down
Quantity name: z-score
Lab note: jot down the number only; don't add units.

Endpoint output: z-score of `C=C[C@H](OC)[C@@H](OC(=O)Nc1ccc(SC)cc1)c1ccc(O)c(F)c1` . Value?
-2.99

Query `COCCOC(=O)N1C(=O)[C@@]2(c3cc(C#CCNC(N)=O)ccc31)[C@H](c1ccc(OCCO)cc1)N1[C@H](c3ccccc3)[C@H](c3ccccc3)OC(=O)[C@H]1[C@@H]2C(=O)Nc1nc2ccccc2s1` next
0.846

Query `C=C(COC)C(=O)CC[C@H](OC(=O)c1ccccc1-c1ccccc1C(=O)O)c1cccc(OCCO)c1` next
-17.1

Query CC(C)C[C@@H]1NC(=O)[C@H](CC(C)C)NC(=O)[C@@]23C(=O)N[C@@H](Cc4ccccc4)C2[C@H](C)[C@@]2(C)O[C@H]2C3/C=C/CC/C=C/CNC1=O (stereo partly drawn) next
-0.737

Query `CO[C@H]1COC(=O)CC=C[C@H](C)[C@@H](OC)COC(=O)[C@H](Cc2ccccc2)NC(=O)CC=C[C@@H]1C` next
-0.562

Query `CCCC=C(CCC)[C@@H](NC(=O)c1ccc(C(F)(F)F)cc1)c1ccccc1` next
0.79

Query `[N-]=[N+]=NCc1ccccc1C[C@@]1(C(=O)N2CCOCC2)N=C(c2ccc(OCCCO)cc2)O[C@@H]1c1ccccc1N=[N+]=[N-]` next
-1.37

Query CN1C(=O)C2C=CC(C(O)c3ccc(N(C)C)cc3)N(Nc3ccc([N+](=O)[O-])cc3[N+](=O)[O-])C2C1=O (stereo not drawn) next
0.111

Query `CN(C)CCCC[C@@H]1NC(=O)[C@@H]2C[C@H](C(=O)NCCCCCNC(=O)CS)[C@H](c3ccc(O)cc3)N2C1=O` next
-0.312

Query `C=CCNC(=O)[C@H]1[C@@H]2C(=O)O[C@@H](c3ccccc3)[C@@H](c3ccccc3)N2[C@@H](c2ccccc2OCCO)[C@]12C(=O)N(C(=O)OCCOC)c1ccc(C#CCNC(N)=O)cc12` next
0.338

Query `Cc1ccc(S[C@]2(C(=O)NC(C)C)CC(=O)N(C3Cc4ccccc4C3)[C@@H]2c2ccc(CO)cc2)cc1` next
-0.0445

Query `COc1cc2c(cc1OC)CN(C(=O)[C@@H]1[C@H]3C(=O)O[C@H](c4ccccc4)[C@H](c4ccccc4)N3[C@H](c3ccccc3OCCO)[C@@]13C(=O)Nc1ccccc13)CC2` next
1.34

Query COC(=O)c1ccc(C#CC(NP(=O)(c2ccccc2)c2ccccc2)c2ccccc2)cc1 (stereo not drawn) next
0.441

Query `COCCCNC(=O)[C@@H]1c2ccccc2C(=O)N(CC23CC4CC(CC(C4)C2)C3)[C@H]1c1ccc(CO)cc1` next
-0.323

Query `C=CC[C@@]12N=C(c3ccc(OCCCO)cc3)O[C@@H]1c1ccccc1CN(Cc1ccccc1)C2=O` next
-0.251

Query `CCN1C(C)=C(C(=O)OC)[C@@H](c2ccccc2)N2C(=O)[C@@]3(C(=O)OC)O[C@@]12[C@@H]1C(=O)N(c2ccccc2)C(=O)[C@@H]13` next
-1.07

Query `COc1ccc([Si](C)(C)[C@@H]2[C@@H](CC(=O)N(CCO)Cc3ccccc3)O[C@]3(C(=O)N(Cc4cccc(N5CCC5=O)c4)c4ccccc43)[C@H]2C)cc1` next
0.328

Query `C=C(CCCC)/C(=C/C[C@@H](OC(=O)c1ccncc1)c1cccc(OCCO)c1)c1cc(C(=O)OC)ccc1OC` next
0.199

Query `COc1ccc([C@H]2C[C@H]3C(Br)=C[C@]2(OC)C(=O)[C@]32CO2)cc1` next
-3.26

Query `CCCC=C(CCC)[C@@H](NC(=O)c1ccccc1)c1ccccc1` next
0.752

Query `O=C1O[C@@H](c2ccccc2)[C@@H](c2ccccc2)N2[C@@H](c3ccc(O)cc3)[C@]3(C(=O)Nc4ccc(C#CC5(O)CCCCCC5)cc43)[C@@H](C(=O)Nc3nc4ccccc4s3)[C@H]12` next
-0.657

Query `CO[C@H]1COC(=O)[C@H](Cc2ccccc2)NC(=O)CC=C[C@@H](C)[C@H](OC)COC(=O)CC=C[C@@H]1C` next
-1.43

Query Cc1ccccc1C(O)C1C=CC2C(=O)N(c3ccccc3)C(=O)C2N1Nc1ccc(C#N)cc1 (stereo not drawn) next
-0.257

Query `C=CCNC(=O)[C@@H]1[C@H]2C(=O)O[C@H](c3ccccc3)[C@H](c3ccccc3)N2[C@H](c2ccc(OCCO)cc2)[C@@]12C(=O)N(C(=O)OCCOC)c1ccc(C#CC3(O)CCCCCC3)cc12` next
-0.985

Query `COc1ccc([Si](C)(C)[C@@H]2[C@@H](CCO)O[C@]3(C(=O)N(Cc4ccc(NC(=O)[C@H](C)O)cc4)c4ccccc43)[C@H]2C)cc1` next
-0.177

Query `COc1cccc([C@@H]2[C@@H](C)CC[C@H]3C(=O)N(C)[C@@H](C(C)C)C(=O)N23)c1` next
-1.32

Query `COc1ccc([Si](C)(C)[C@H]2[C@H](CCO)O[C@@]3(C(=O)N(Cc4ccc(N5CCCCC5=O)cc4)c4ccccc43)[C@@H]2C)cc1` next
-1.07

Query O=C1C2C=CC(C(O)c3ccccc3)N(n3cnnc3)C2C(=O)N1Cc1ccccc1 (stereo not drawn) next
-0.0402
